Target: Inosine-5'-monophosphate dehydrogenase 2 (Homo sapiens, UniProt P12268)
Please respond with Yes when measured IC50 is strictly beneath 40 nM, and with No in all other cases.

Regarding COc1cc2nc(-c3ccccn3)cc(O)c2cc1-c1cnco1 , kindly confirm whether its IC50 is beneath 40 nM.
No

Lab note: IC50 threshold 40 nM. Does this compound come in strictly under it? COc1cc2nc(-c3ccc(C)cc3)cc(O)c2cc1-c1cnco1
Yes

Does the reported IC50 of the following compound sit strictly below 40 nM? COc1cc2nccc(O)c2cc1-c1cnco1
No

Hi there! Is IC50 for COc1cc2nc(C(C)(C)C)cc(O)c2cc1-c1cnco1 below 40 nM, do you know?
No

Does COc1cc2nc(-c3ccc(O)cc3)cc(O)c2cc1-c1cnco1 have IC50 strictly under 40 nM?
No

Consider COc1cc2nc(-c3ccccc3)cc(O)c2cc1-c1cnco1 . Does its IC50 lie strictly below 40 nM?
Yes

Does COc1cc2nc(-c3cccnc3)cc(O)c2cc1-c1cnco1 have IC50 strictly under 40 nM?
No

Input COc1cc2nc(-c3cccs3)cc(O)c2cc1-c1cnco1 ; condition: IC50 strictly below 40 nM. Does it hold?
No

Below 40 nM on IC50? Entry COc1cc2nc(-c3ccc(C(=O)O)cc3)cc(O)c2cc1-c1cnco1
No

IC50 strictly < 40 nM for this compound? CNc1cc(O)c2cc(-c3cnco3)c(OC)cc2n1
No

Answer whether the compound COc1cc2nc(-c3cccc(C(=O)O)c3)cc(O)c2cc1-c1cnco1 has IC50 strictly less than 40 nM
No

Hello, I'm reviewing records and need to know if IC50 of COc1cc2nc(-c3cscn3)cc(O)c2cc1-c1cnco1 is below 40 nM. Could you check?
Yes

Criterion: IC50 strictly below 40 nM. Is it met by COc1ccc(-c2cc(O)c3cc(-c4cnco4)c(OC)cc3n2)cc1 ?
Yes

---

Biological target: Inosine-5'-monophosphate dehydrogenase 2 (Homo sapiens, UniProt P12268)
REPORTED_METRIC: Ki (nM)
# unit: nM | format: bare number

The measured Ki associated with COc1cc2nc(-c3ccccc3)cc(O)c2cc1-c1cnco1 reads 7

---

For each of the molecules below, state its Ratio.
Biological target: Inosine-5'-monophosphate dehydrogenase 1 (Homo sapiens, UniProt P20839)
Assay: Ratio of IC50(Type I) to IC50(Type II)
Sequence (P20839 2-514 limits assumed): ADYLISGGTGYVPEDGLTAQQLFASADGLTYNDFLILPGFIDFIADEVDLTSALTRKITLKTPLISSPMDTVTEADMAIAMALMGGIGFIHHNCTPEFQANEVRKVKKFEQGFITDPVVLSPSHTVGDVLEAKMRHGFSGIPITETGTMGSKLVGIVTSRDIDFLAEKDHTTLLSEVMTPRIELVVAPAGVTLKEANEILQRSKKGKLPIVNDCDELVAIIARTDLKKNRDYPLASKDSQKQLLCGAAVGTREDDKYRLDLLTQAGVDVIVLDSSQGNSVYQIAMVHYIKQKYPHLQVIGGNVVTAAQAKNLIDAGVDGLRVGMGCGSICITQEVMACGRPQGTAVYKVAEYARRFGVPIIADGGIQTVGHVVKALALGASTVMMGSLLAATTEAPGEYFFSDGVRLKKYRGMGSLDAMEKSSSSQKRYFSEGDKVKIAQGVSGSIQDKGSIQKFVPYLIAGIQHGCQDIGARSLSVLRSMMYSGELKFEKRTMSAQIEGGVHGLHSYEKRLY
Note: the reply should be a number with no unit written.

The molecule listed as COc1cc2nc(-c3ccsc3)cc(O)c2cc1-c1cnco1 has a reported Ratio of 6

Consider COc1cc(NC(=O)Nc2cccc(C)c2)ccc1-c1cnco1 . Its measured Ratio is 2.9

Field Ratio (entry COc1cc2nc(-c3cccc(C)c3)cc(O)c2cc1-c1cnco1 ) reads 30

Just so you know, measured Ratio for COc1cc2nc(-c3ccccc3)cc(O)c2cc1-c1cnco1 came out at 12

---

I'd be grateful if you could share measured IC50 for these entries.
Write the answer as a number in nM, unit excluded.

Test item COc1c(C)c2c(c(O)c1C/C=C(\C)CCC(=O)O)C(=O)OC2 ; Inosine-5'-monophosphate dehydrogenase 1 (Homo sapiens, UniProt P20839); reported IC50 was 55

# lookup: COc1cc2nc(-c3ccc(C)cc3)cc(O)c2cc1-c1cnco1 on Inosine-5'-monophosphate dehydrogenase 1 (Homo sapiens, UniProt P20839), IC50 = 46

Case COc1cc2nc(-c3ccccc3)cc(O)c2cc1-c1cnco1 , Inosine-5'-monophosphate dehydrogenase 1 (Homo sapiens, UniProt P20839), IC50 recorded as 99

Inosine-5'-monophosphate dehydrogenase 1 (Homo sapiens, UniProt P20839) assay, compound COc1cc2nc(-c3ccc(C)c(C)c3)cc(O)c2cc1-c1cnco1 , recorded IC50 = 83

Form: item COc1cc2nc(-c3ccsc3)cc(O)c2cc1-c1cnco1 ; test system Inosine-5'-monophosphate dehydrogenase 1 (Homo sapiens, UniProt P20839); IC50: 55

---

Molecular target: Inosine-5'-monophosphate dehydrogenase 1 (Homo sapiens, UniProt P20839)
Assay: Ratio of IC50(Type I) to IC50(Type II)
REPORTED_METRIC: Ratio

response.value for COc1ccc(-c2cc(O)c3cc(-c4cnco4)c(OC)cc3n2)cc1 (field: Ratio) = > 18

In plain terms, COc1cc2nc(-c3ccc(C)c(C)c3)cc(O)c2cc1-c1cnco1 has a documented Ratio of > 17

COc1cc2nc(-c3ccc(C)cc3)cc(O)c2cc1-c1cnco1 has a reported Ratio of > 9
